Each entry below carries its recorded ED50.
- Species on record: Mus musculus
- Procedure text: Anticataleptic activity for reversing the reserpine-induced catalepsy in mice.
- Type: functional
A number alone suffices; assume mg/kg.

| Compound | ED50 [mg/kg] |
| --- | --- |
| CC12C3CC4C5C[C@H]([C@H](C53)[C@@H]1NCc1ccccc1)[C@@H]42 (stereo partly specified) | 34 |

Supply measured ED50 of CCCCN[C@H]1[C@H]2C3C4C[C@H]2[C@H]2C4CC3C21C (stereo partly specified) in your reply. 15

Supply measured ED50 of NC12CC3CC(CC(C3)C1)C2 in your reply. 17

Supply measured ED50 of CCN[C@H]1[C@H]2C3C4C[C@H]2[C@H]2C4CC3C21c1ccccc1 (stereo partly specified) in your reply. 14

Supply measured ED50 of N[C@H]1[C@H]2C3C4C[C@H]2[C@H]2C4CC3C21c1ccccc1 (stereo partly specified) in your reply. 16

Supply measured ED50 of CC12C3CC4C5C[C@H]([C@H](C53)[C@@H]1NCCc1ccccc1)[C@@H]42 (stereo partly specified) in your reply. 150

* * *

- Procedure text: Acute toxicity in mice (24 hours).
- Format: organism-based
- Settings: mouse, in vivo
Each entry below carries its recorded LD50 at 24 h.
A number alone suffices; assume mg/kg.

The cases that follow already have their LD50 at 24 h on record.
| Molecule | Measure unit | LD50 at 24 h |
| --- | --- | --- |
| N[C@H]1[C@H]2C3C4C[C@H]2[C@H]2C4CC3C21c1ccccc1 (stereo not given in full) | mg/kg | 681 |
| CCN[C@H]1[C@H]2C3C4C[C@H]2[C@H]2C4CC3C21c1ccccc1 (stereo not given in full) | mg/kg | 261 |

Supply measured LD50 at 24 h of CCCCN[C@H]1[C@H]2C3C4C[C@H]2[C@H]2C4CC3C21C (stereo not given in full) in your reply. 150

// data source = ChEMBL document CHEMBL1125612
